Some molecules, each annotated with its measured clearance.
# Experimental protocol: pharmacokinetic properties test in rats
# Type: in vivo
# Test parameters: SD rat, 1 mg/kg intravenous injection, single, plasma
# Protocol: The pharmacokinetic properties of the compounds of the present disclosure in different animal species were investigated by measuring plasma drug concentrations following intravenous and oral gavage in mouse, rat, and dog. i. The compounds were weighed, then the solvent (5% DMSO + 10% Solutol + 85% saline) was added to prepare the administration solution. ii. […] Pharmacokinetic parameters were calculated using Phoenix WinNonlin 7.0 using plasma drug concentration data at different time points.

{"columns": ["Given smiles", "clearance"],
 "data": [
  ["O=C([C@H](CO)c1ccc(F)cc1F)N1CC(=C2CN(S(=O)(=O)c3ccccn3)C2)C1", "29.9 mL/min/kg"]
]}

Kindly review the next molecule as well.
Consider the molecule N#Cc1ccc(S(=O)(=O)N2CC(=C3CN(C(=O)[C@H](CO)c4ccccc4)C3)C2)cc1 and give its measured clearance.
42.2 mL/min/kg
